This section presents binders with their documented X Mean values.
target: T1, CD40 antigen on cells (cell-based binding assay) (UniProt P25942 21-277, limits assumed); assay: cell-based binding assay, 293F culture supernatant
T1 construct: whole, on cells; the cells are not described
T1 sequence (P25942 21-277 limits assumed): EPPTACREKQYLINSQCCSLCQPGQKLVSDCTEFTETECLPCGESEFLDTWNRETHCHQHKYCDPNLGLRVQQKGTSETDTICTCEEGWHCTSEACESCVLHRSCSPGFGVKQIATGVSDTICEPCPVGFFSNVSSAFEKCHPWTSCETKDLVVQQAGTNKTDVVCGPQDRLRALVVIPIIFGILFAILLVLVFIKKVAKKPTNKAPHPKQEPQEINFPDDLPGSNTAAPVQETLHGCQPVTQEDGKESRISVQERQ
# output: bare number, no unit

# example entries with known answers
Binder | X Mean
ANb24-Alpaca1-4M-2SP-335 (Fc fusion, also called ANb24-A1-4M-2SP-335; ANb24-Alpacal-4M-2SP-335; not shown: Fc joined to the VHH by overlap PCR) QPQFVESGGGLVQPGGTLRLSCAASGFTFEYYTIGWFRQTPGKEREGVSCITAAGVPRNADSAKGRFTISRDNAKNMVYLQMNNLKPEDTAVYYCAQARLLSTSCAPMNDYWGQGTQVTVSS | 8960
ANb24-Alpaca1-4M-2SP-273 (Fc fusion, also called ANb24-A1-4M-2SP-273; ANb24-Alpacal-4M-2SP-273; not shown: Fc joined to the VHH by overlap PCR) EVQLVESGGGLVQPGGSLRLSCAASGSTLDYYAIGWFRQAPGKEREGVSCISGSGGSTRYADSVTGRFTISKDSAKNTVYLEMNSLKPEDTAVYYCARARLLSRLCVPSADFDSWGQGTQVTVSS | 4420
ANb24-Alpaca1-4M-2SP-149 (Fc fusion, also called ANb24-A1-4M-2SP-149; ANb24-Alpacal-4M-2SP-149; not shown: Fc joined to the VHH by overlap PCR) EVQLVESGGGLVQPGGSLRLSCTASGSTLDIYAIGWFRQAPGKEREGVSCITGSGSSTRYAHSVTGRFTISRDNAKNTVFLQMNSLKPEDTAVYYCAKARLLSRLCVPSPDFESWGQGTQVTVSS | 11500
ANb24-Alpaca1-4M-2SP-180 (Fc fusion, also called ANb24-A1-4M-2SP-180; ANb24-Abpacal-4M-2SP-180; not shown: Fc joined to the VHH by overlap PCR) QPQFVESGGGLVQPGGSLRLSCTASGSTLDIYAIGWFRQAPGKEREGVSCITGSGSSTRYADSVTGRFTISRDNAKNTVFLQMNSLKPDDTAVYYCAKARLLSMLCVPSPDFESWGQGTQVTVSS | 10800
ANb24-Alpaca1-4M-2SP-317 (Fc fusion, also called ANb24-A1-4M-2SP-317; ANb24-Alpacal-4M-2SP-317; not shown: Fc joined to the VHH by overlap PCR) QLQLVESGGDLVQPGGSLRLSCTASGHTLEYYAIGWFRQAPGKEREGVSCIIGSGGSTRYFDSVLGRFTISRDNAKNTVFLQMNSLKPEDTAVYYCAKVRLLSRLCVPSSDFDSWGQGTQVTVSS | 8970

Q. Could you tell me which X Mean is on file for ANb24-Alpaca1-4M-2SP-332 (Fc fusion, also called ANb24-A1-4M-2SP-332; ANb24-Alpacal-4M-2SP-332; not shown: Fc joined to the VHH by overlap PCR) QVQLVESGGGLVQPGGSLRLSCAASGSTLASYAIGWFRQAPGKEREGISCISGSGGSTRAADSVQGRFTISRDNAKNTVSLQMNSLKPEDTAIYYCAKVRLLSRGCVPSPDFDSWGQGTQVTVSS ?
A. 4080

Q. Could you tell me which X Mean is on file for ANb24-Alpaca1-4M-2SP-226 (Fc fusion, also called ANb24-A1-4M-2SP-226; ANb24-Alpacal-4M-2SP-226; not shown: Fc joined to the VHH by overlap PCR) QLQLVESGGGLVQPGGTLRLSCAASGVTLEYYSIGWFRQSPGKEREGVSCISGGGVQRYADSAEGRFAISRDNAKNMVYLQMNNLEPEDTAVYYCARARLLMRGCAPMDNYWGQGTQVTVSS ?
A. 10700

Q. Could you tell me which X Mean is on file for ANb24-Alpaca1-4M-2SP-175 (Fc fusion, also called ANb24-A1-4M-2SP-175; ANb24-Alpacal-4M-2SP-175; not shown: Fc joined to the VHH by overlap PCR) QPHFVESGGGLVQPGGSLRLSCVASGFTFEYVPIGWFRQAPGKEREGVSCITPTGITRNADSVKGRFTISRDNAKNTVYLQLNSLKPEDTAVYYCAKARLLSTSCVQTSDARGQGTQVTVSS ?
A. 10500
